Exercise: for every item that follows, state its recorded inhibition at 1 µM.
target system: DYRK1B (Homo sapiens, UniProt Q9Y463)
Sequence (Q9Y463 whole entry): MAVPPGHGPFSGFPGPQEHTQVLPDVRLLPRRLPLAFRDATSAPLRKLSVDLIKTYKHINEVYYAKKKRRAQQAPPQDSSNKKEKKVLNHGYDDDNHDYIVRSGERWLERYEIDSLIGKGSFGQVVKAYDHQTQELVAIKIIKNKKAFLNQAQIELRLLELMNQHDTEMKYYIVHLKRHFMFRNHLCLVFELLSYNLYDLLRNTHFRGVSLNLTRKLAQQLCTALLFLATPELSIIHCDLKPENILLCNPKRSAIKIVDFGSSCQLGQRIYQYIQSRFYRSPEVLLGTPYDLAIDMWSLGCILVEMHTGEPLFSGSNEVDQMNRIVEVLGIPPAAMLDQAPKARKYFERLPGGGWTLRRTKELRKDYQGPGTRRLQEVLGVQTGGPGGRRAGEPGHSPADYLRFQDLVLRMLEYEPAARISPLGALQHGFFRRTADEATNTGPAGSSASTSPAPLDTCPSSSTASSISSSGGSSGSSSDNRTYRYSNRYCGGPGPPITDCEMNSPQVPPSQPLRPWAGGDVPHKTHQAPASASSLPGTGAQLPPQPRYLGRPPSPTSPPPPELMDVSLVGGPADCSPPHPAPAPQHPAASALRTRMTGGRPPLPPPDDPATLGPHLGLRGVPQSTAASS
protocol summary: DYRK1B radiometric kinase assay with Woodtide substrate peptide
Type: biochemical
measurement conditions: read-out: % inhibition at 1 μM, DYRK1B
Answer in %, number only, no unit symbol.

Respond only with inhibition at 1 µM recorded for `COc1ccc2c(c1)C(=O)c1sc3ccc(O)cc3c1-2` 78

Supply reported inhibition at 1 µM belonging to this compound: `COc1cccc2c1C(=O)c1sc3ccccc3c1-2` 7

Supply measured inhibition at 1 µM of `COc1ccc2sc3c(c2c1)-c1ccccc1C3=O` in your reply. 68

Identify inhibition at 1 µM associated with the compound `COc1ccc2c(c1)-c1c(sc3ccc(O)cc13)C2=O` 93

Give a short answer stating reported inhibition at 1 µM for `O=C1c2ccccc2-c2c1sc1ccc(O)cc21` . 89

---

target system: CLK1 (Homo sapiens, UniProt P49759)
Sequence (P49759 whole entry): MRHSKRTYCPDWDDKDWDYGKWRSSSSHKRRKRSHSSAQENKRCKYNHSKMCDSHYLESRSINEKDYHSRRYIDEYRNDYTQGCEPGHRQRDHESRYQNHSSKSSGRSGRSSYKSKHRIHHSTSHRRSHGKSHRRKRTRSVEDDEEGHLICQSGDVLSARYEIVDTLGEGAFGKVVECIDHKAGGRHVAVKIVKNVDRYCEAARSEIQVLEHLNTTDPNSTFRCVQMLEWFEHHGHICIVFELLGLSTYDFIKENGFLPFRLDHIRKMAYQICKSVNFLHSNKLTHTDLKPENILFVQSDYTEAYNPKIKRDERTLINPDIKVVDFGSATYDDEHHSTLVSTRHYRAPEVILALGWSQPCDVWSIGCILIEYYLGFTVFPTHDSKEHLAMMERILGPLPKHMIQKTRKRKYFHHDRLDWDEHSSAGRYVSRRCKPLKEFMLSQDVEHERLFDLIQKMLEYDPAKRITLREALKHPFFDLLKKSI
protocol summary: Radiometric kinase assay
Format: biochemical
value type: IC50 (nM)
Field: numeric (nM). Do not append units.

Return reported IC50. Input compound: `COc1ccc2c(c1)C(=O)c1sc3ccc(O)cc3c1-2` 20

---

target system: DYRK2 (Homo sapiens)
Sequence (Q92630 1-601): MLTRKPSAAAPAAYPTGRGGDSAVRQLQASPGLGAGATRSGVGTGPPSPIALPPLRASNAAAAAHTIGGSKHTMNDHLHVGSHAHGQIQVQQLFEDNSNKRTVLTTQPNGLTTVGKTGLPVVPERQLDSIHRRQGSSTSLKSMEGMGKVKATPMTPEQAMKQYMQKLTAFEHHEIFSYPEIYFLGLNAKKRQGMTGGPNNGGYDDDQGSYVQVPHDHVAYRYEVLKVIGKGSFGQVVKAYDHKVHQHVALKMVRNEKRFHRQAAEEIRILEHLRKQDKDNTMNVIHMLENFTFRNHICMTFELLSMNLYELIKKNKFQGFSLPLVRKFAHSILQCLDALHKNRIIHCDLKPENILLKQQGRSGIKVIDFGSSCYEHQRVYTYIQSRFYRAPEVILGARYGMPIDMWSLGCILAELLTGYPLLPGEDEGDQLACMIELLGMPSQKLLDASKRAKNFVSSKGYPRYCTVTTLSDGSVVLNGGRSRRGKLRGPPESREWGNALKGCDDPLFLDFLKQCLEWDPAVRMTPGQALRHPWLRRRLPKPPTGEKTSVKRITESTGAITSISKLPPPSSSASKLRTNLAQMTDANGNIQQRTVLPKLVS
value type: pIC50
Conceptually, pIC50 converts a concentration in mol/L into minus its log10.

Please tell me the measured pIC50 for COc1ccc2c(c1)C(=O)c1sc3ccc(O)cc3c1-2 [4k] ; system: DYRK2 (Homo sapiens). 6.73

---

target system: UniProtKB Q9Y463
value type: pIC50
Reminder that pIC50 means the negative base-10 logarithm of the concentration expressed in mol/L.

Please report pIC50 for the following compound: `COc1ccc2c(c1)C(=O)c1sc3ccc(O)cc3c1-2` 6.69

---

target system: CLK1 (Homo sapiens, UniProt P49759)
protocol summary: Z'-LYTE kinase activity assay
value type: IC50
Param answer (str): number followed by unit.

Write down measured IC50 (CLK1 (Homo sapiens, UniProt P49759)) for this compound. `COc1ccc2c(c1)C(=O)c1sc3ccc(O)cc3c1-2` 1080 nM
